- Target: affinity purified β2GPI-dependent antiphospholipid antibody
- Assay: Competitive inhibition ELISA: recombinant β2GPI proteins compete for antibody binding to coated full length recombinant β2GPI
- Design: species or system human
- Condition Description: Ab 6644; read-out: 50% (concentration to give 50% inhibition)
pIC50: −log10 of the molar value.
Measurement Kind: pIC50

>  <Molecule>
recombinant β2GPI domain 5 with GlyHis6 (----5) (protein) GRASCKLPVKKATVVYQGERVKIQEKFKNGMLHGDKVSFFCKNKEKKCSYTEDAQCIDGTIEVPKCFKEHSSLAFWKTDASDVKPCGHHHHHH

>  <Measured Value>
< 4.33

$$$$

Moving on to the next molecule.
For the molecule --345: recombinant β2GPI deletion mutant with domains 3, 4, 5 (protein) GRIICPPPSIPTFATLRVYKPSAGNNSLYRDTAVFECLPQHAMFGNDTITCTTHGNWTKLPECREVKCPFPSRPDNGFVNYPAKPTLYYKDKATFGCHDGYSLDGPEEIECTKLGNWSAMPSCKASCKLPVKKATVVYQGERVKIQEKFKNGMLHGDKVSFFCKNKEKKCSYTEDAQCIDGTIEVPKCFKEHSSLAFWKTDASDVKPCGHHHHHH , give its measured pIC50 value.
< 4.30

Value source: patent US6858210B1
